Property: IC50; scope: individual molecules
- assayed system: UniProt P16083
- Sequence (P16083 whole entry): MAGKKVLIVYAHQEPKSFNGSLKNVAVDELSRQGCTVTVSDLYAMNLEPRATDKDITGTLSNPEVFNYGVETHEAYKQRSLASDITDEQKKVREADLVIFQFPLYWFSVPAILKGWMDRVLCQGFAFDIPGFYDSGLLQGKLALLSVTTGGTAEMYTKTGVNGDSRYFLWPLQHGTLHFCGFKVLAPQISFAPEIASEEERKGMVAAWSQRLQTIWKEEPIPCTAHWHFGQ
- measurement protocol: QR2 enzymatic activity assay (menadione/BNAH), absorbance readout at 350 nm
- Type: biochemical
- Design: purchased Sigma-Aldrich
readout kind: IC50 (µM)

- molecule: "Cc1ccc(-c2nnc(-c3ccccc3)o2)cc1S(=O)(=O)N1CCC(C)CC1"
  assayed system: "UniProt P16083"
  readout kind: "IC50"
  inequality operator: "="
  recorded value: 1.2
- molecule: "Cc1cc(-c2ccc(C)c(S(=O)(=O)NCCCN3CCCC3=O)c2)n[nH]1"
  assayed system: "UniProt P16083"
  readout kind: "IC50"
  inequality operator: "="
  recorded value: 0.28
- molecule: "Cc1ccc(-c2nnc(-c3ccccc3)o2)cc1S(=O)(=O)N(C)C"
  assayed system: "UniProt P16083"
  readout kind: "IC50"
  inequality operator: "="
  recorded value: 1.62
- molecule: "CCOC(=O)C1CCN(S(=O)(=O)c2cc(-c3csc(C)n3)ccc2C)CC1"
  assayed system: "UniProt P16083"
  readout kind: "IC50"
  inequality operator: "="
  recorded value: 3.2
- molecule: "CCCN(CCC)S(=O)(=O)c1cccc(-c2cn3cccc(C)c3n2)c1"
  assayed system: "UniProt P16083"
  readout kind: "IC50"
  inequality operator: "="
  recorded value: 0.75
- molecule: "Cc1csc(-c2cc(S(=O)(=O)NC3CCCCC3)c(C)n2C)n1"
  assayed system: "UniProt P16083"
  readout kind: "IC50"
  inequality operator: ">"
  recorded value: 9.99
- molecule: "Cc1cc(-c2ccc(C)c(S(=O)(=O)N(C)C)c2)on1"
  assayed system: "UniProt P16083"
  readout kind: "IC50"
  inequality operator: "="
  recorded value: 1.71
- molecule: "Cc1c(-c2nnc(C3CCC3)o2)c(S(=O)(=O)NCc2ccc(Cl)cc2)c(C)n1C"
  assayed system: "UniProt P16083"
  readout kind: "IC50"
  inequality operator: ">"
  recorded value: 9.99
- molecule: "Cc1ccn2cc(-c3cccc(S(=O)(=O)N4CCCCCC4)c3)nc2c1"
  assayed system: "UniProt P16083"
  readout kind: "IC50"
  inequality operator: "="
  recorded value: 0.41
- molecule: "CCOC(=O)c1c(S(=O)(=O)N2CCN(Cc3ccccc3)CC2)c(C)n(C)c1C"
  assayed system: "UniProt P16083"
  readout kind: "IC50"
  inequality operator: ">"
  recorded value: 9.99
- molecule: "Cc1ccn2cc(-c3cccc(S(=O)(=O)N4CC(C)CC(C)C4)c3)nc2c1 (stereo not drawn)"
  assayed system: "UniProt P16083"
  readout kind: "IC50"
  inequality operator: "="
  recorded value: 1.22
- molecule: "Cc1ccc(-c2nnc(-c3ccccc3)o2)cc1S(=O)(=O)NCc1cccnc1"
  assayed system: "UniProt P16083"
  readout kind: "IC50"
  inequality operator: "="
  recorded value: 1.17
- molecule: "CCOC(=O)c1c(S(=O)(=O)N(CC)c2cccc(C)c2)c(C)n(C)c1C"
  assayed system: "UniProt P16083"
  readout kind: "IC50"
  inequality operator: "="
  recorded value: 8.98
- molecule: "Cc1ccn2cc(-c3ccc(C)c(S(=O)(=O)N4CCN(C(=O)c5ccco5)CC4)c3)nc2c1"
  assayed system: "UniProt P16083"
  readout kind: "IC50"
  inequality operator: "="
  recorded value: 0.11
- molecule: "Cc1cc(-c2ccc(C)c(S(=O)(=O)N3CCC(C)CC3)c2)n[nH]1"
  assayed system: "UniProt P16083"
  readout kind: "IC50"
  inequality operator: "="
  recorded value: 0.27
- molecule: "Cc1cccn2cc(-c3cccc(S(=O)(=O)N4CCCCCC4)c3)nc12"
  assayed system: "UniProt P16083"
  readout kind: "IC50"
  inequality operator: "="
  recorded value: 0.01
- molecule: "CCCS(=O)(=O)N1CCCc2cc(NC(=O)c3ccco3)ccc21"
  assayed system: "UniProt P16083"
  readout kind: "IC50"
  inequality operator: ">"
  recorded value: 9.99
- molecule: "Cc1cccn2cc(-c3cccc(S(=O)(=O)Nc4ccc(Cl)cc4)c3)nc12"
  assayed system: "UniProt P16083"
  readout kind: "IC50"
  inequality operator: "="
  recorded value: 0.05

src = patent US20240228481A1
